# Assay target: Wee1-like protein kinase (Homo sapiens) (UniProt P30291)
# Assay notes: Wee1 degradation inhibitors, primary screen, cell-based, HeLa, Wee1K328M-luciferase, luminescence (AID 1321);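 note: cells exposed to compound for 20 h before luminescence read; 0% = DMSO alone and 100% = MG132 at 30 µM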
# Recorded conditions: HeLa Luc-Wee1K328M stability, at 5 µM, hits give high values, 100% = proteasome inhibitor MG132 effect
Among all 220,000 compounds or so, about 2,600 (1.2%) were called active. This is one part of a sample in which actives are shown more often than they occur.
Provide the reported reporter increase of each item.
# output: bare number, implied unit %

Query: Using Wee1-like protein kinase (Homo sapiens) (UniProt P30291) as the test system, report measured reporter increase of `COc1ccc(O)c(C(=O)c2cnc3c(c2)c(-c2ccc(F)cc2)c(C#N)c(=O)n3C)c1` .
Result: 9.71

Query: Using Wee1-like protein kinase (Homo sapiens) (UniProt P30291) as the test system, report measured reporter increase of `COCCn1c(=O)[nH]c(=O)c2cc(C(=O)c3cc(OC)ccc3O)cnc21` .
Result: 0.11

Query: Using Wee1-like protein kinase (Homo sapiens) (UniProt P30291) as the test system, report measured reporter increase of `FC(F)(F)c1cccc(-c2nc(COc3ccc(Cl)cc3Cl)no2)c1` .
Result: 1.86

Query: Using Wee1-like protein kinase (Homo sapiens) (UniProt P30291) as the test system, report measured reporter increase of `COc1cccc(OCCOc2cccc(/C=N/n3cnnc3)c2)c1` .
Result: 10.7

Query: Using Wee1-like protein kinase (Homo sapiens) (UniProt P30291) as the test system, report measured reporter increase of `C=CCc1ccc(OCCOc2cccc(/C=N/n3cnnc3)c2)c(OC)c1` .
Result: 0.6

* * *

# Assay target: Wee1-like protein kinase (Homo sapiens) (UniProt P30291)
# Assay notes: Wee1 degradation inhibitors, primary screen, cell-based, HeLa, Wee1K328M-luciferase, luminescence (AID 1321);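 note: cells exposed to compound for 20 h before luminescence read; 0% = DMSO alone and 100% = MG132 at 30 µM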
# Recorded conditions: HeLa Luc-Wee1K328M stability, at 5 µM, hits give high values, 100% = proteasome inhibitor MG132 effect
In all, about 220,000 compounds went through this assay and about 2,600 (1.2%) were called active. Many of the other results were omitted from the sample, so actives are more common in it than they were.
Measure name: reporter increase (%)
# output: bare number, implied unit %

Query: Quote reporter increase reported for `N#Cc1ccccc1Sc1ccccc1C(=O)OCC(=O)NC1CCCCC1` please.
Result: 2.45

Query: Quote reporter increase reported for `NNC(=O)c1ccc(COCC(F)(F)C(F)F)cc1` please.
Result: 2.09

Query: Quote reporter increase reported for `Cc1coc2cc3oc(=O)c(CCC(=O)O)c(C)c3cc12` please.
Result: 5.73

Query: Quote reporter increase reported for `CCOc1ncccc1C(=O)OCC(=O)NC1CC1` please.
Result: -1.43

Query: Quote reporter increase reported for `Cc1ccc(NC(=S)Nc2ncccc2C)c(C)c1` please.
Result: 11.8

Query: Quote reporter increase reported for `COc1ccc(C(=O)N/N=C(\C)CC(=O)Nc2ccc(Cl)cn2)cc1` please.
Result: 0.12

Query: Quote reporter increase reported for CN1CCN(CC(=O)Nc2sc3c(c2C#N)CCC(C(C)(C)C)C3)CC1 (stereo not drawn) please.
Result: 16.5

Query: Quote reporter increase reported for `COc1ccccc1-n1c(-c2cc(-c3ccco3)[nH]n2)n[nH]c1=S` please.
Result: 2.11

Query: Quote reporter increase reported for CCC1CCc2c(sc(NC(C)=O)c2C#N)C1 (stereo not drawn) please.
Result: 1.63

Query: Quote reporter increase reported for `O=C(Nc1ccccc1N1CCOCC1)c1csc2c1CCCC2` please.
Result: -0.73

Query: Quote reporter increase reported for `Cc1ccc(N=C2NC(=O)c3cccc([N+](=O)[O-])c32)cc1` please.
Result: 8.82

Query: Quote reporter increase reported for `Cc1ccc2[nH]c(=O)c(CN3CCCCC3)c(-c3ccccc3)c2c1` please.
Result: 11.8

Query: Quote reporter increase reported for `CCNc1nc(Oc2ccc(C(=O)OC)cc2)nc(N2CCOCC2)n1` please.
Result: 1.78

Query: Quote reporter increase reported for `Cc1nnsc1C(=O)N/N=C/c1ccccc1Cl` please.
Result: 2.61

Query: Quote reporter increase reported for `Cc1ccc(NC(=S)NCc2ccccc2Cl)c(C)c1` please.
Result: 4.9

Query: Quote reporter increase reported for `CCn1c(SCC(=O)N/N=C/c2ccccc2OCC(=O)O)nnc1-c1ccc(C(C)(C)C)cc1` please.
Result: 0.66

Query: Quote reporter increase reported for `Cc1ccc(-c2nc(SCC(=O)Nc3ccccc3OC(F)F)c3c(C)c(C(=O)O)sc3n2)cc1` please.
Result: -1.68

Query: Quote reporter increase reported for `C/C(CC(C)C)=N\Oc1nc(C)cc(C)n1` please.
Result: -1.74

Query: Quote reporter increase reported for `COc1ccc(NS(=O)(=O)c2ccc(Oc3c(C#N)cccc3C#N)cc2)cc1` please.
Result: -2.73

Query: Quote reporter increase reported for `O=C(Cn1cnc2ccccc2c1=O)Nc1cccc(S(=O)(=O)N2CCCCC2)c1` please.
Result: -0.22

Query: Quote reporter increase reported for `COc1ccccc1Nc1nc(N)nc(CSC(=S)N2CCOCC2)n1` please.
Result: -0.95

Query: Quote reporter increase reported for `O=C(Cc1cc(=O)[nH][nH]1)N/N=C/c1ccccc1[N+](=O)[O-]` please.
Result: -4.24

Query: Quote reporter increase reported for `COc1ccc(C(=O)NCC(=O)N/N=C/c2ccc([N+](=O)[O-])o2)cc1OC` please.
Result: -1.47

* * *

# Assay target: Wee1-like protein kinase (Homo sapiens) (UniProt P30291)
# Assay notes: Wee1 degradation inhibitors, primary screen, cell-based, HeLa, Wee1K328M-luciferase, luminescence (AID 1321);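 note: cells exposed to compound for 20 h before luminescence read; 0% = DMSO alone and 100% = MG132 at 30 µM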
# Recorded conditions: HeLa Luc-Wee1K328M stability, at 5 µM, hits give high values, 100% = proteasome inhibitor MG132 effect
Hit rate of the full screen: of about 220,000 compounds, about 2,600 (1.2%) were called active. The sample as a whole holds a higher share of actives than the screen did.
Kind request: treat 6% as inclusive, so reporter increase at 6% or higher is criterion met, anything lower is criterion not met.

Query: Exam item: decide whether the reported reporter increase for `COc1ccc(NS(=O)(=O)c2ccc(N3CCOCC3)c(NC(=O)c3ccccc3Br)c2)cc1` is at least 6%.
Result: criterion not met

Query: Exam item: decide whether the reported reporter increase for `O=C(Nc1ccc(F)cc1)c1cc2c(s1)CCCC2` is at least 6%.
Result: criterion met

Query: Exam item: decide whether the reported reporter increase for `CCCCOC(=O)CCCc1ccc([N+](=O)[O-])cc1[N+](=O)[O-]` is at least 6%.
Result: criterion met

Query: Exam item: decide whether the reported reporter increase for `O=C(NNC(=O)c1cc2c(s1)CCCC2)c1ccccc1` is at least 6%.
Result: criterion not met

Query: Exam item: decide whether the reported reporter increase for `CCOC(=O)C1CCN(C(=O)Nc2ccc(C)c(Cl)c2)CC1` is at least 6%.
Result: criterion not met

* * *

# Assay target: Wee1-like protein kinase (Homo sapiens) (UniProt P30291)
# Assay notes: Wee1 degradation inhibitors, primary screen, cell-based, HeLa, Wee1K328M-luciferase, luminescence (AID 1321);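 note: cells exposed to compound for 20 h before luminescence read; 0% = DMSO alone and 100% = MG132 at 30 µM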
# Recorded conditions: HeLa Luc-Wee1K328M stability, at 5 µM, hits give high values, 100% = proteasome inhibitor MG132 effect
The campaign covered roughly 220,000 compounds. About 2,600 (1.2%) were called active. For the sample, actives were picked, then their nearest neighbours and some compounds at random.
Provide the reported reporter increase of each item.
# output: bare number, implied unit %

Query: Quote reporter increase reported for `Cc1ccc(C(=O)Nc2nc(N)n(-c3ccccc3)n2)cc1` please.
Result: -0.93

Query: Quote reporter increase reported for `CC(C)(C)NC(=O)CN(C(=O)c1ccc(Cl)nc1)c1cccc2ccccc12` please.
Result: -1.92

Query: Quote reporter increase reported for `Nc1nnc(SCn2nnc3ccccc3c2=O)s1` please.
Result: -0.04

Query: Quote reporter increase reported for CCOC(=O)c1ccc(NC(=O)C2CC(=O)Nc3nc4ccccc4n32)cc1 (stereo unspecified) please.
Result: -0.26

Query: Quote reporter increase reported for `COC(=O)c1cc2c(N)c(C(=O)c3ccc(Cl)cc3)sc2nc1C(OC)OC` please.
Result: -2.57

Query: Quote reporter increase reported for O=C(Nc1ccccc1)C1CC(=O)n2c(nc3ccccc32)N1 (stereo unspecified) please.
Result: -0.1

Query: Quote reporter increase reported for `COc1ccc(-n2c(=S)[nH]c3sc4c(c3c2=O)CCc2ccccc2-4)cc1` please.
Result: 8.88

Query: Quote reporter increase reported for CCC(C)(C)NC(=O)C(c1ccccn1)N(C(=O)c1csnn1)c1ccccc1 (stereo unspecified) please.
Result: 1.04

Query: Quote reporter increase reported for CCOc1ccc(N2CC(C(=O)N/N=C/c3sccc3C)CC2=O)cc1 (stereo unspecified) please.
Result: -2.91

Query: Quote reporter increase reported for `Nc1c(C(=O)NCc2ccccc2)sc2nc3c(cc12)C(=O)CCC3` please.
Result: 2.8

Query: Quote reporter increase reported for `CC(C)OC(=O)c1sc2nc3c(cc2c1N)C(=O)CCC3` please.
Result: 11.6
